Entry source: patent US11420969B2

# Target system: CYP2D6 (Homo sapiens, UniProt P10635)
# Construct: from tissue; host or cells: human liver microsomes
# Sequence (P10635 whole entry): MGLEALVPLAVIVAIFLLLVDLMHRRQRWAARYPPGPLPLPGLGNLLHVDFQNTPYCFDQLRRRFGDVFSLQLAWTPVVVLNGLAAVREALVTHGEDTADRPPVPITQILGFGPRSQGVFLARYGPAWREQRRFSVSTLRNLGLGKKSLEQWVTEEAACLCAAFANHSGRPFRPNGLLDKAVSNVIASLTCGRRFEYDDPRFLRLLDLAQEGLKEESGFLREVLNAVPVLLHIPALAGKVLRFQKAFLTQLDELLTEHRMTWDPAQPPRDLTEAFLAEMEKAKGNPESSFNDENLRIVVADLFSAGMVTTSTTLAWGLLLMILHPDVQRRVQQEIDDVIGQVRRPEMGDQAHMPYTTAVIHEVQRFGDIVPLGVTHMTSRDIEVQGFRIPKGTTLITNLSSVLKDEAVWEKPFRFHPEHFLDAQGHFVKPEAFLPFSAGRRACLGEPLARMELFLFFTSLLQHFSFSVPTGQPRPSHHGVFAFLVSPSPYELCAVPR
# Test protocol: biochemical
# Assay type: in vitro ADME
Experimental endpoint: IC50

Worked examples, 5 molecules total:
> print(dat)
                                   molecule  experimental.endpoint    value
1  CC1(O)CCCN(c2ccc(C(F)(F)F)cc2NC(=O)c2ccc(C3CCOCC3)o2)CC1 (racemic) [Example 40]                   IC50  26.9 µM
2  CC1(C)CCN(c2ccc(Cl)cc2NC(=O)c2ccc(C3CCOCC3)o2)CC1 [Example 65]                   IC50  > 30 µM
3  COc1ccc(N2CCC(C)(CN(C)C)CC2)c(NC(=O)c2ccc(C3CCOCC3)o2)c1 [Example 92]                   IC50   1.5 µM
4  O=C(Nc1cc(C(F)(F)F)ccc1N1CCC(O)(c2ccccc2)CC1)c1ccc(C2CCOCC2)o1 [Example 22]                   IC50  > 30 µM
5  CC1(O)CCN(c2ccc(C3CC3)cc2NC(=O)c2ccc(C3CCOCC3)o2)CC1 [Example 17]                   IC50  > 30 µM

[in] Reported IC50, molecule CC1(O)CCN(c2ccc(C(F)(F)F)cc2NC(=O)c2ccc(-c3ccncc3)o2)C1 (racemic) [Example 55] : ____
[out] > 30 µM

[in] Reported IC50, molecule CC1(O)CCN(c2ccc(C(F)(F)F)cc2NC(=O)c2ccccn2)CC1 [Example 1] : ____
[out] > 30 µM

[in] Reported IC50, molecule CC1(C(N)=O)CCN(c2ccc(C(F)(F)F)cc2NC(=O)c2ccc(C3CCOCC3)o2)CC1 [Example 75] : ____
[out] 11.8 µM
